These entries and their values trace back to PubChem BioAssay (NCI).

Test system: DU-145 prostate
Assay: NCI tumour cell line growth inhibition, 48 h
readout: TGI

TGI on DU-145 prostate for Cc1ccc(NCCN(C)C)c2c(=O)c3cc(O)ccc3oc12 is 28.3 µM

TGI on DU-145 prostate for COc1cc2nc3c(=C(C#N)C#N)c4ccccc4n3c(=O)c2cc1OC is > 100 µM

TGI on DU-145 prostate for C#CCCCCC#Cc1ccccc1C(=O)C=[N+]=[N-] is > 100 µM

TGI on DU-145 prostate for Cc1noc(C)c1-n1nc2ccc3nonc3c2n1 is > 100 µM

TGI on DU-145 prostate for COc1cc(OC)c2nc3occc3c(OC)c2c1 is > 100 µM

TGI on DU-145 prostate for CN(C)c1ccc(/C=C(\NC(=O)c2ccccc2)C(=O)Nc2ccccc2C(=O)NCc2ccccc2)cc1 is > 100 µM
